Let's look at some molecules and their measured MIC.
system: Staphylococcus aureus; test: Antibacterial activity against methicillin-resistant Staphylococcus aureus clinical isolate M-4 incubated for 16 to 18 hrs CLSI based by microbroth dilution assay; type: functional; conditions: time 16-18 hrs
Report the figure in mg/L without appending any unit label.

{"columns": ["structure-string", "target-of-assay", "units-text", "MIC"],
 "data": [
  ["CCNC(=O)C[N+](C)(C)CCCn1c(-c2ccc(N(C)C)cc2)nc2c3ccccc3c3ccccc3c21.[Br-]", "Staphylococcus aureus", "mg/L", 32],
  ["CCCNC(=O)C[N+](C)(C)CCCn1c(-c2ccc(N(C)C)cc2)nc2c3ccccc3c3ccccc3c21.[Br-]", "Staphylococcus aureus", "mg/L", 32],
  ["CCCCN(CCCC)C(=O)C[N+](C)(C)CCCn1c(-c2ccc(N(C)C)cc2)nc2c3ccccc3c3ccccc3c21.[Br-]", "Staphylococcus aureus", "mg/L", 4],
  ["CN(C)c1ccc(-c2nc3c4ccccc4c4ccccc4c3n2CCCC[N+](C)(C)CC(=O)N2CCSCC2)cc1.[Br-]", "Staphylococcus aureus", "mg/L", 16],
  ["CCCCCNC(=O)C[N+](C)(C)CCCCCn1c(-c2ccc(N(C)C)cc2)nc2c3ccccc3c3ccccc3c21.[Br-]", "Staphylococcus aureus", "mg/L", 2],
  ["CC(C)CN(CC(C)C)C(=O)C[N+](C)(C)CCCCn1c(-c2ccc(N(C)C)cc2)nc2c3ccccc3c3ccccc3c21.[Br-]", "Staphylococcus aureus", "mg/L", 1],
  ["CCCN(CCC)C(=O)C[N+](C)(C)CCCCCn1c(-c2ccc(N(C)C)cc2)nc2c3ccccc3c3ccccc3c21.[Br-]", "Staphylococcus aureus", "mg/L", 2],
  ["CCCCN(CCCC)C(=O)C[N+](C)(C)CCCCCn1c(-c2ccc(N(C)C)cc2)nc2c3ccccc3c3ccccc3c21.[Br-]", "Staphylococcus aureus", "mg/L", 1],
  ["CCCCCNC(=O)C[N+](C)(C)CCCCn1c(-c2ccc(N(C)C)cc2)nc2c3ccccc3c3ccccc3c21.[Br-]", "Staphylococcus aureus", "mg/L", 0.5],
  ["CCN(CC)C(=O)C[N+](C)(C)CCCn1c(-c2ccc(N(C)C)cc2)nc2c3ccccc3c3ccccc3c21.[Br-]", "Staphylococcus aureus", "mg/L", 64]
]}

**Q:** Please give the measured MIC for this molecule: "CN(C)c1ccc(-c2nc3c4ccccc4c4ccccc4c3n2CCCCC[N+](C)(C)CC(=O)N2CCSCC2)cc1.[Br-]"
**A:** 4

**Q:** And for "CCCCCCNC(=O)C[N+](C)(C)CCCCn1c(-c2ccc(N(C)C)cc2)nc2c3ccccc3c3ccccc3c21.[Br-]" ?
**A:** 2

**Q:** And for "CCN(CC)C(=O)C[N+](C)(C)CCCCCn1c(-c2ccc(N(C)C)cc2)nc2c3ccccc3c3ccccc3c21.[Br-]" ?
**A:** 8

**Q:** And for "CN(C)c1ccc(-c2nc3c4ccccc4c4ccccc4c3n2CCC[N+](C)(C)CC(=O)N2CCSCC2)cc1.[Br-]" ?
**A:** 64

**Q:** And for "CC(C)N(C(=O)C[N+](C)(C)CCCCn1c(-c2ccc(N(C)C)cc2)nc2c3ccccc3c3ccccc3c21)C(C)C.[Br-]" ?
**A:** 8

**Q:** And for "CCNC(=O)C[N+](C)(C)CCCCn1c(-c2ccc(N(C)C)cc2)nc2c3ccccc3c3ccccc3c21.[Br-]" ?
**A:** 16

**Q:** And for "CC(C)N(C(=O)C[N+](C)(C)CCCCCn1c(-c2ccc(N(C)C)cc2)nc2c3ccccc3c3ccccc3c21)C(C)C.[Br-]" ?
**A:** 4

----------
system: Escherichia coli; assay: Antibacterial activity against Escherichia coli ATCC 25922 incubated for 16 to 18 hrs CLSI based by microbroth dilution assay; type: functional; conditions: time 16-18 hrs
Let's look at some compounds and their measured MIC.

Please review the following examples before continuing.
{"columns": ["structure-string", "target-of-assay", "recorded-metric", "endpoint-value"],
 "data": [
  ["CC(C)CN(CC(C)C)C(=O)C[N+](C)(C)CCCCCn1c(-c2ccc(N(C)C)cc2)nc2c3ccccc3c3ccccc3c21.[Br-]", "Escherichia coli", "MIC", "> 128 µg/mL"],
  ["CCCN(CCC)C(=O)C[N+](C)(C)CCCn1c(-c2ccc(N(C)C)cc2)nc2c3ccccc3c3ccccc3c21.[Br-]", "Escherichia coli", "MIC", "> 128 µg/mL"],
  ["CC(C)N(C(=O)C[N+](C)(C)CCCCCn1c(-c2ccc(N(C)C)cc2)nc2c3ccccc3c3ccccc3c21)C(C)C.[Br-]", "Escherichia coli", "MIC", "> 128 µg/mL"]
]}

**Q:** Please give the measured MIC for this compound: "CCCCN(CCCC)C(=O)C[N+](C)(C)CCCn1c(-c2ccc(N(C)C)cc2)nc2c3ccccc3c3ccccc3c21.[Br-]"
**A:** 64 µg/mL

**Q:** And for "CCNC(=O)C[N+](C)(C)CCCCn1c(-c2ccc(N(C)C)cc2)nc2c3ccccc3c3ccccc3c21.[Br-]" ?
**A:** > 128 µg/mL

**Q:** And for "CCCCCCNC(=O)C[N+](C)(C)CCCCn1c(-c2ccc(N(C)C)cc2)nc2c3ccccc3c3ccccc3c21.[Br-]" ?
**A:** 32 µg/mL

----------
assay: Hemolytic activity in sheep erythrocytes incubated for 1 hr by absorbance based assay; type: toxicity, cell-based, Ovis aries, Erythrocyte
Entries whose HC50 at 1 h is below 300 µg/mL take true; entries at or above 300 µg/mL take false.

Example results:
{"columns": ["molecule", "assigned-category"],
 "data": [
  ["CCCCCNC(=O)C[N+](C)(C)CCCCn1c(-c2ccc(N(C)C)cc2)nc2c3ccccc3c3ccccc3c21.[Br-]", "false"],
  ["CN(C)c1ccc(-c2nc3c4ccccc4c4ccccc4c3n2CCC[N+](C)(C)CC(=O)N2CCSCC2)cc1.[Br-]", "false"],
  ["CCCCCNC(=O)C[N+](C)(C)CCCn1c(-c2ccc(N(C)C)cc2)nc2c3ccccc3c3ccccc3c21.[Br-]", "false"]
]}

Shift focus to the following entry.
**Q:** For "CCN(CC)C(=O)C[N+](C)(C)CCCCCn1c(-c2ccc(N(C)C)cc2)nc2c3ccccc3c3ccccc3c21.[Br-]" , is the recorded HC50 at 1 h below the cut-off of 300 µg/mL?
**A:** false

----------
system: Escherichia coli; assay: Antibacterial activity against Escherichia coli ATCC 25922 incubated for 16 to 18 hrs CLSI based by microbroth dilution assay; type: functional; conditions: time 16-18 hrs
recorded-metric: MIC (µg/mL)
Report the figure in µg/mL without appending any unit label.

Please review the following examples before continuing.
{"columns": ["structure-string", "MIC [µg/mL]"],
 "data": [
  ["CCCCCNC(=O)C[N+](C)(C)CCCCn1c(-c2ccccc2)nc2c3ccccc3c3ccccc3c21.[Br-]", 32],
  ["CCCCCCNC(=O)C[N+](C)(C)CCCCCn1c(-c2ccc(N(C)C)cc2)nc2c3ccccc3c3ccccc3c21.[Br-]", 64]
]}

**Q:** Please give the measured MIC for this molecule: "CC(C)CN(CC(C)C)C(=O)C[N+](C)(C)CCCCn1c(-c2ccc(N(C)C)cc2)nc2c3ccccc3c3ccccc3c21.[Br-]"
**A:** 64

**Q:** And for "CCCCCNC(=O)C[N+](C)(C)CCCCn1c(-c2ccc(N(C)C)cc2)nc2c3ccccc3c3ccccc3c21.[Br-]" ?
**A:** 32

----------
assay: Cytotoxicity against human L02 cells assessed as cell survival at 16 ug/ml by MTT assay relative to control; assay type: toxicity, cell-based; conditions: at 16 µg/mL, read-out: Survival
recorded-metric: viability at 16 ug/ml (%)
Report the figure in % without appending any unit label.

**Q:** Please give the measured viability at 16 ug/ml for this compound: "CCCCCNC(=O)C[N+](C)(C)CCCCn1c(-c2ccc(N(C)C)cc2)nc2c3ccccc3c3ccccc3c21.[Br-]"
**A:** 100

----------
test: Selectivity index, ratio of HC50 for sheep erythrocytes to MIC for Staphylococcus aureus ATCC 29213; assay type: toxicity; conditions: read-out: Selectivity Index
recorded-metric: selectivity ratio
// no unit string in output, number only

Please review the following examples before continuing.
{"columns": ["structure-string", "recorded-metric", "endpoint-value"],
 "data": [
  ["CCCCN(CCCC)C(=O)C[N+](C)(C)CCCCn1c(-c2ccc(N(C)C)cc2)nc2c3ccccc3c3ccccc3c21.[Br-]", "selectivity ratio", 79.5],
  ["CCN(CC)C(=O)C[N+](C)(C)CCCCCn1c(-c2ccc(N(C)C)cc2)nc2c3ccccc3c3ccccc3c21.[Br-]", "selectivity ratio", 67.8],
  ["CCCNC(=O)C[N+](C)(C)CCCCCn1c(-c2ccc(N(C)C)cc2)nc2c3ccccc3c3ccccc3c21.[Br-]", "selectivity ratio", 91.9]
]}

**Q:** Please give the measured selectivity ratio for this compound: "CC(C)CN(CC(C)C)C(=O)C[N+](C)(C)CCCn1c(-c2ccc(N(C)C)cc2)nc2c3ccccc3c3ccccc3c21.[Br-]"
**A:** 40

**Q:** And for "CCCN(CCC)C(=O)C[N+](C)(C)CCCCCn1c(-c2ccc(N(C)C)cc2)nc2c3ccccc3c3ccccc3c21.[Br-]" ?
**A:** 49.7

**Q:** And for "CC(C)N(C(=O)C[N+](C)(C)CCCn1c(-c2ccc(N(C)C)cc2)nc2c3ccccc3c3ccccc3c21)C(C)C.[Br-]" ?
**A:** 8.6

**Q:** And for "CCCCCNC(=O)C[N+](C)(C)CCCCn1c(-c2ccc(N(C)C)cc2)nc2c3ccccc3c3ccccc3c21.[Br-]" ?
**A:** 859

**Q:** And for "CCCCCCNC(=O)C[N+](C)(C)CCCCCn1c(-c2ccc(N(C)C)cc2)nc2c3ccccc3c3ccccc3c21.[Br-]" ?
**A:** 221

**Q:** And for "CC(C)CN(CC(C)C)C(=O)C[N+](C)(C)CCCCCn1c(-c2ccc(N(C)C)cc2)nc2c3ccccc3c3ccccc3c21.[Br-]" ?
**A:** 247

**Q:** And for "CCCCCCNC(=O)C[N+](C)(C)CCCCn1c(-c2ccc(N(C)C)cc2)nc2c3ccccc3c3ccccc3c21.[Br-]" ?
**A:** 176

meta.source: ChEMBL document CHEMBL5512637
